Source: patent US20160362487A1

- testSystem: T1, cynomolgus monkey IL-33 expressed with a C-terminal hexahistidine tag (cynomolgus monkey)
- T1 construct: also called MfIL-33-6His; Mf-IL-33-6His
- T1 chain: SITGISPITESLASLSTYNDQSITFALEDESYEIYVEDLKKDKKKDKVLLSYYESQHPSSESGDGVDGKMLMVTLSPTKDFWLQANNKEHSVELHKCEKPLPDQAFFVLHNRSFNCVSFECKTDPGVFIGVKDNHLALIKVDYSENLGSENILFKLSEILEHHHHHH
- protocolDescription: SPR 37C, pH6.0 chase, mAb captured
Assign t½ to each entry below.
Report the figure along with its unit, number first.

Find the recorded t½ belonging to H4H9670P (antibody, V domains shown, Human IgG4 Fc (H4H)) VH: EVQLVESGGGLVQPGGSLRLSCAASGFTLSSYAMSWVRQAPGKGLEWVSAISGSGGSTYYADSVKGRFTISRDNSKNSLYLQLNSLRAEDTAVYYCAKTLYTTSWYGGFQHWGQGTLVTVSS VL: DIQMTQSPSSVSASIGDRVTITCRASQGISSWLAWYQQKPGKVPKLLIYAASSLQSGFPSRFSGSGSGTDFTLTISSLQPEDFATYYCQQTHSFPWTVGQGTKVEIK and report it.
7 min

I am curious: what t½ value has been reported for H1M9568N (antibody, mouse IgG1, V domains shown, Human variable domains, mouse IgG1 Fc (H1M)) VH: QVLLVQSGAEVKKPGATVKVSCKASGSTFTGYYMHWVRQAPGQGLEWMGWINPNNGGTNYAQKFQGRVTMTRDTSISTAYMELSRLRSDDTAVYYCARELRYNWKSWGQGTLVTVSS VL: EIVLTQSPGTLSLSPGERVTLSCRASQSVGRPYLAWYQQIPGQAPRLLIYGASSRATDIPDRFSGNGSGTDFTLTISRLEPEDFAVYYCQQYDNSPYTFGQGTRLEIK ?
5 min

Would you mind telling me what t½ value was observed for H4H9659P (antibody, human IgG4, V domains shown, Human IgG4 Fc (H4H)) VH: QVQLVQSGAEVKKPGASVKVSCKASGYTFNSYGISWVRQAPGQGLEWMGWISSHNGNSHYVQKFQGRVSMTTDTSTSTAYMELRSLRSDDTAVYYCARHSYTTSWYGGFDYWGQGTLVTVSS VL: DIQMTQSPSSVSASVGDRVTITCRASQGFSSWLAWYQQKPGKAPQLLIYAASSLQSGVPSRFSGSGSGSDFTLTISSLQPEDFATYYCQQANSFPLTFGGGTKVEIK ?
11 min

Consider the binder H4H9667P (antibody, human IgG4, V domains shown, Human IgG4 Fc (H4H)) VH: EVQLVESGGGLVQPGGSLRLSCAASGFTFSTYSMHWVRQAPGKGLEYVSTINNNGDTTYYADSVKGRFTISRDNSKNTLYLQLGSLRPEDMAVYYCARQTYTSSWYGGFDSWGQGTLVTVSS VL: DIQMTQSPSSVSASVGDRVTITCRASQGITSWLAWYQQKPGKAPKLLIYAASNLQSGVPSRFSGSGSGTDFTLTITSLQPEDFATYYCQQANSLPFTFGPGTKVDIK and give its measured t½.
4 min
